Record form. Attribute: IC50. Fill in for each entry.
biological target: Urease subunit alpha/Urease subunit beta (Helicobacter pylori (strain ATCC 700392 / 26695) (Campylobacterpylori), UniProt P69996); test: Inhibition of urease in intact Helicobacter pylori ATCC 43504 assessed as reduction in ammonia production by indophenol based Berthelot color reaction method
Sequence (P69996 whole entry): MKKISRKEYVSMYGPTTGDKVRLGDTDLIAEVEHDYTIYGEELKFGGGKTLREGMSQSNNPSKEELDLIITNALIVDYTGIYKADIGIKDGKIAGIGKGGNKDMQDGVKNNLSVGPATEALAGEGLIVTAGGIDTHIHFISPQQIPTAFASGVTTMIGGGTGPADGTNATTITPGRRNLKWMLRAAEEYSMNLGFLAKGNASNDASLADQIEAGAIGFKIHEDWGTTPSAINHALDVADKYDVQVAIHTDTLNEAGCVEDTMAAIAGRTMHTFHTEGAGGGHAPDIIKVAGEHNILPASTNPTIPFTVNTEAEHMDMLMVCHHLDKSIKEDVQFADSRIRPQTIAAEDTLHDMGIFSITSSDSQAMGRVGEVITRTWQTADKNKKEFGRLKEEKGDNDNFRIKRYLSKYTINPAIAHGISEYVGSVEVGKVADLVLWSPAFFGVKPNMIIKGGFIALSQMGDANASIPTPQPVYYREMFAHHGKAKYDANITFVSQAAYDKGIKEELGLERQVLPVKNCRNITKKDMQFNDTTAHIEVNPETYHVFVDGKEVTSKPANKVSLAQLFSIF
Sequence (P14916 whole entry, further chain): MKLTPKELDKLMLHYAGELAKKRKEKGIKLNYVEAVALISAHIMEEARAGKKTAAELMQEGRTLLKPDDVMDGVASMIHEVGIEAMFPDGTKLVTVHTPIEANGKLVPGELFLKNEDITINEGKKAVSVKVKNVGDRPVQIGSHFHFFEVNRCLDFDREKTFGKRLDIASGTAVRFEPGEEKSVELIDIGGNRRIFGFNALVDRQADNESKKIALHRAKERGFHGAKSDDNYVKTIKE
Reply with the number, then its unit.

Sure, the documented IC50 for Oc1ccc(CCc2cccc(Cl)c2)cc1O is 94.7 µM

Sure, the documented IC50 for Oc1ccc(CCc2ccc(O)c(O)c2)cc1 is 4.2 µM

Sure, the documented IC50 for Oc1ccc(CCc2cccc(Br)c2)cc1O is 88.9 µM

Sure, the documented IC50 for CC(=O)NO [ACETOHYDROXAMIC ACID] is 101 µM

Sure, the documented IC50 for CCCCCCc1ccc(O)c(O)c1 is 77.8 µM

Sure, the documented IC50 for CCc1ccc(O)c(O)c1 is 17.3 µM

Sure, the documented IC50 for Oc1ccc(CCc2ccc(F)cc2)cc1O is 32.4 µM

Sure, the documented IC50 for Oc1ccc(CCc2ccc(Cl)cc2)cc1O is 50.1 µM

Sure, the documented IC50 for CCCCc1ccc(O)c(O)c1 is 38.1 µM

###

target: Urease subunit alpha/Urease subunit beta (Helicobacter pylori (strain ATCC 700392 / 26695) (Campylobacterpylori), UniProt P69996); test: Inhibition of cell free Helicobacter pylori ATCC 43504 urease assessed as reduction in ammonia production by indophenol based Berthelot color reaction method
IC50 vs 70 µM: less than gives T; not less than gives F.

Here's an entry: Oc1ccc(CCc2cccc(Cl)c2)c(O)c1O . Is its IC50 below 70 µM?
T

Here's an entry: Oc1ccc(CCc2ccc(Cl)cc2)cc1O . Is its IC50 below 70 µM?
T

Here's an entry: CC(=O)NO [ACETOHYDROXAMIC ACID] . Is its IC50 below 70 µM?
T

Here's an entry: CCc1ccc(O)c(O)c1O . Is its IC50 below 70 µM?
T

Here's an entry: COc1ccc(CCc2ccc(Cl)cc2)cc1OC . Is its IC50 below 70 µM?
F

Here's an entry: CCCCc1ccc(O)c(O)c1O . Is its IC50 below 70 µM?
F

###

target: Urease subunit alpha/Urease subunit beta (Helicobacter pylori (strain ATCC 700392 / 26695) (Campylobacterpylori)); experiment: Inhibition of cell free Helicobacter pylori ATCC 43504 urease assessed as reduction in ammonia production by indophenol based Berthelot color reaction method
Record form. Attribute: pIC50. Fill in for each entry.
Reminder that pIC50 is minus the log10 of a molar concentration.

Sure, the documented pIC50 for COc1ccc(CCc2ccc(O)cc2)cc1OC is 3.69

Sure, the documented pIC50 for Oc1ccc(CCc2ccc(O)c(O)c2)cc1 is 5.82

Sure, the documented pIC50 for COc1ccc(CCc2ccc(O)c(O)c2)cc1OC is 4.64

Sure, the documented pIC50 for Oc1ccc(CCc2ccc(Cl)cc2)c(O)c1O is 4.33

Sure, the documented pIC50 for CCCCCCCCCCCCCCc1ccc(O)c(O)c1O is 3.60

Sure, the documented pIC50 for CCCCCCCCCCCCc1ccc(O)c(O)c1O is 3.77

Sure, the documented pIC50 for CCCCCCCCc1ccc(O)c(O)c1O is 3.99

Sure, the documented pIC50 for Oc1ccc(CCc2cccc(Br)c2)cc1O is 4.77

Sure, the documented pIC50 for Oc1ccc(CCc2ccc(F)cc2)c(O)c1O is 4.37

Sure, the documented pIC50 for Oc1ccc(CCc2cccc(Cl)c2)cc1O is 4.80

Sure, the documented pIC50 for CCc1ccc(O)c(O)c1 is 5.31

Sure, the documented pIC50 for CCCCCCCCCCc1ccc(O)c(O)c1O is 3.91

Sure, the documented pIC50 for Oc1ccc(CCc2ccc(F)cc2)cc1O is 5.21

Sure, the documented pIC50 for CCCCCCCCc1ccc(O)c(O)c1 is 4.24

Sure, the documented pIC50 for CCCCc1ccc(O)c(O)c1 is 5.10

Sure, the documented pIC50 for COc1ccc(CCc2ccccc2O)cc1OC is 3.64

Sure, the documented pIC50 for CCCCCCc1ccc(O)c(O)c1O is 4.04

Sure, the documented pIC50 for Oc1ccc(CCc2ccc(O)c(O)c2O)cc1 is 4.49

Sure, the documented pIC50 for Oc1ccc(CCc2ccc(Br)cc2)c(O)c1O is 4.32

Sure, the documented pIC50 for CCCCCCc1ccc(O)c(O)c1 is 4.91

Sure, the documented pIC50 for Oc1ccc(CCc2cccc(Br)c2)c(O)c1O is 4.28

Sure, the documented pIC50 for CCOc1ccc(CCc2ccc(O)c(O)c2O)cc1OCC is 4.16

Sure, the documented pIC50 for COc1ccc(CCc2cccc(Cl)c2)cc1OC is 3.63
